Origin of the recorded values: ChEMBL document CHEMBL5058577

Tested on: U2OS
experiment: Multiplex assay against U2OS
Assay type: toxicity, cell-based
details: human, 48 h, 10 µM, compound concentration 10 uM, replicate 2
Everything with Population Pyknosed Nuclei (%) lower than 9% is F; everything else, including exactly 9%, is T.

[
  {
    "compound": "CCCCCCNC(=O)Nc1ccc(S(=O)(=O)Nc2ccc(CCNC[C@H](O)COc3ccc(O)cc3)cc2)cc1 [L-755507]",
    "discrete label": "F"
  },
  {
    "compound": "O=C(Nc1cc(-c2ccccc2)nn1-c1ccccc1F)c1ccc([N+](=O)[O-])cc1",
    "discrete label": "T"
  },
  {
    "compound": "COc1ccc2c(c1OCc1ccccc1)C[C@@H](C(=O)O)N(C(=O)C(c1ccccc1)c1ccccc1)C2 [OLODANRIGAN]",
    "discrete label": "F"
  }
]

## Input In plain terms: is recorded Population Pyknosed Nuclei (%) at least 9% for Cc1cc(NC(=O)NCCN2CCC(O)(Cc3ccccc3)CC2)c2ccccc2n1 [PALOSURAN] ?
## Output T

## Input In plain terms: is recorded Population Pyknosed Nuclei (%) at least 9% for CN1C[C@H](C(=O)N[C@]2(C)O[C@@]3(O)[C@@H]4CCCN4C(=O)[C@H](Cc4ccccc4)N3C2=O)C[C@@H]2c3cccc4[nH]cc(c34)C[C@H]21.CS(=O)(=O)O [DIHYDROERGOTAMINE MESYLATE] ?
## Output F

## Input In plain terms: is recorded Population Pyknosed Nuclei (%) at least 9% for CN(C)C/C=C/C(=O)Nc1ccc(C(=O)N2CCCC(Nc3ncc(Cl)c(-c4c[nH]c5ccccc45)n3)C2)cc1 (stereo not given) ?
## Output T

## Input In plain terms: is recorded Population Pyknosed Nuclei (%) at least 9% for COC(c1ccccc1)(c1ccccc1)[C@H](Oc1nc(C)cc(C)n1)C(=O)O [AMBRISENTAN] ?
## Output F

## Input In plain terms: is recorded Population Pyknosed Nuclei (%) at least 9% for Nc1nc(CC(=O)Nc2ccc(CCNC[C@H](O)c3ccccc3)cc2)cs1 [MIRABEGRON] ?
## Output F
